Test system: HCT-116
Test: NCI tumour cell line growth inhibition, 48 h
Activity calls are given as the source filed them. Rule as the data show it: active = GI50 up to about 1.1 µM and inactive = higher.
Classes to choose from: t (active), f (inactive)

Qu. Per the records of this test, what outcome belongs to `COC1=Nc2ccccc2S(=O)(=O)C=C1` ?
Ans. f

Qu. Per the records of this test, what outcome belongs to `O=C1Nc2ccccc2[C@]12C[C@H]2c1ccccn1` ?
Ans. f

Qu. Per the records of this test, what outcome belongs to `O=C(O)C1(Cc2ccccc2)Cc2cc3c(cc2C1)CCC3` ?
Ans. f

Qu. Per the records of this test, what outcome belongs to `NS(=O)(=O)c1nc(S(=O)(=O)O)c2[nH]cnc2n1` ?
Ans. f

Qu. Per the records of this test, what outcome belongs to CSC1=C(C#N)C(=O)N(c2ccc(Cl)cc2)C(=O)C1C#N (stereo unspecified) ?
Ans. f

Qu. Per the records of this test, what outcome belongs to `CCc1c(-c2ccc(OC)cc2)c(=O)oc2cc(O)ccc12` ?
Ans. f

Qu. Per the records of this test, what outcome belongs to COC(=O)CCC(C)[C@H]1CCC2C3CC[C@@H]4CC5(CC[C@]4(C)C3C[C@H](OC(C)=O)[C@@]21C)OOC1(CCCCC1)OO5 (stereo partly specified) ?
Ans. f

Qu. Per the records of this test, what outcome belongs to `COC(=O)CCC(=O)c1ccc2c(c1)CCC2` ?
Ans. f

Qu. Per the records of this test, what outcome belongs to `COc1ccc(C[C@@H]2NC[C@@H](O)[C@@H]2OC(C)=O)cc1` ?
Ans. t

Qu. Per the records of this test, what outcome belongs to C#CCNC(=O)NCCCC(NC(C)=O)C(=O)NCc1ccccc1 (stereo unspecified) ?
Ans. f

Qu. Per the records of this test, what outcome belongs to `O=C(O)c1ccccc1CC1Cc2cc3c(cc2C1)CCC3` ?
Ans. f

Data credit: ChEMBL document CHEMBL1201862
